B1: peptide HD2 (from tick evasin EVA4) / CCL1 (biotinylated, synthetic) (parent)
chain 1: EEDDYTAYAPLTCYFT
chain 2: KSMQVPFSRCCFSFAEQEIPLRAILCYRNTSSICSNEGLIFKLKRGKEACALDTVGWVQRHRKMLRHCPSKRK

Variants of: B1
ASSAY SETUP: with CCL1 (biotinylated, synthetic); scale: log2
So I've got a bunch of variants here, and I need their enrichment values.

Provide only the value of recorded enrichment for chain 1 Y14E
-7.99

Provide only the value of recorded enrichment for chain 1 P10T
-7.09

Provide only the value of recorded enrichment for chain 1 Y8G
-7.94

Provide only the value of recorded enrichment for chain 1 P10K
-6.19

Provide only the value of recorded enrichment for chain 1 L11N
-7.68

Provide only the value of recorded enrichment for chain 1 Y8H
-6.8

Provide only the value of recorded enrichment for chain 1 Y5S
-8.33

Provide only the value of recorded enrichment for chain 1 Y5V
-8.5

Provide only the value of recorded enrichment for chain 1 P10S
-8.42

Provide only the value of recorded enrichment for chain 1 C13H
-7.88

Provide only the value of recorded enrichment for chain 1 D4Q
-5.71
